Experiment: Selectivity index, ratio of IC50 for rat L6 cells to IC50 for chloroquine-resistant Plasmodium falciparum K1
Format: toxicity, cell-based
Settings: read-out: Ratio IC50
Catalogue of molecules with associated selectivity ratio
API doc: respond with a numeric literal and nothing else, no unit.

Known selectivity ratio results, listed for orientation:
>  <GIVEN SMILES>
N=C(N)c1cccc(COc2c(Cl)cc(C(=N)N)cc2Cl)c1

>  <REPORTED PROPERTY>
selectivity ratio

>  <EXPERIMENTAL VALUE>
3

$$$$
>  <GIVEN SMILES>
N=C(N)c1cccc(COc2ccc(C(=N)N)cc2I)c1

>  <REPORTED PROPERTY>
selectivity ratio

>  <EXPERIMENTAL VALUE>
477

$$$$
>  <GIVEN SMILES>
N=C(N)c1cccc(COc2ccc(C(=N)N)cc2Cl)c1

>  <REPORTED PROPERTY>
selectivity ratio

>  <EXPERIMENTAL VALUE>
275

$$$$

Fill in: selectivity ratio of N=C(N)c1ccc(OCc2ccc([N+](=O)[O-])cc2)c(I)c1 is ___ 11

Fill in: selectivity ratio of N=C(N)c1cccc(COc2c(Br)cc(C(=N)N)cc2Br)c1 is ___ 39
